Molecular target: ASH1L PHD finger Q2601K (human, UniProt Q9NR48 2579-2629, Q2601K)
Ends that are not written are not given here. Me3 = trimethyl on lysine side chain
measure_name: Kd (nM)
Number only, in nM; omit the unit.

Reported Kd for ARTK(Me3)QTARKSTG [histone H3K4me3 peptide (aa 1-12 of H3)] was 1000

Values from paper PMC11883000
